- MEASURED TARGET: FilR1 (Methanosaeta harundinacea 6Ac)
- Sequence: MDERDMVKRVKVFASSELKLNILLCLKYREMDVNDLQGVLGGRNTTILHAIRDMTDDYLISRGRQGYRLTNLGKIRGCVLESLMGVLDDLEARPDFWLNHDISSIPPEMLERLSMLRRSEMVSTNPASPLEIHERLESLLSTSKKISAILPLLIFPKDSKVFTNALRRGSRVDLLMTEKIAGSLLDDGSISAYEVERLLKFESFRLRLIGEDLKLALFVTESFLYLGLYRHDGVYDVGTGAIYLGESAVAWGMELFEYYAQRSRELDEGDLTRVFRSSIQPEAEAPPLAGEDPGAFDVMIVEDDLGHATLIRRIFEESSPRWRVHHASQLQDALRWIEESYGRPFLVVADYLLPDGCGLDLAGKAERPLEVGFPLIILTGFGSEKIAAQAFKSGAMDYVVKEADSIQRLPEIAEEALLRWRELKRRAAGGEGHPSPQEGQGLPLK
- MEASUREMENT PROTOCOL: EMSA
- MEASUREMENT CONTEXT: EMSA: 10 mM Tris-HCl pH 8.0, 50 mM KCl, 10 mM MgCl2, 1 mM DTT, 2.5% glycerol, 1% NP-40, 0.5 mM EDTA, 1 ug/uL poly dI-dC, 10 fmol (0.5 nM) biotin probe, 20 uL …

{"BIOSEQUENCE": "GGTCGGAGAGGCTGAGGGCGATCCCCGTCGTCGTCCTCACCACCTCCACCAGCGACGACGACCTCCGGCGGGCCTACTCCAACCACGTCAACAGCTACCTCATCAAGCCCCTCAGCTTCGAGGACCTGAAGCGGACCGTCGAGGAGATCAAAGAGTACTGGCTTGGATGGAACCGCTCCCCCGGACCCGCGTGAAAGACCCCAGAGGTGAGCGAAACCGAGGCCTTCACCCATGACGCTGCGCC (double strand) [UfilI (internal fragment of filI)]", "MEASURED TARGET": "FilR1 (Methanosaeta harundinacea 6Ac)", "binding": "no binding"}
{"BIOSEQUENCE": "CCATCCCTCTCCCTCAAGATATAGGAGGGAAAAGGTGGACGCTCACTTGGCGAGCGTCACCTTCTCGATGGTAACCTTGGCGTCCTTGAGGATCAGCTTGATCCCGCCCGCTCCGCCCGCCGACATGGCAAAGGCGGGGGCAGCTCCTGCCGCCGGGGCTGCTGCTGCGGCCGGAGCCGCCGCGGCAGGTGCTCCAGGTTCCTTCGACTTCAGCTTCAGTGACAGTTTCTTGGCCATTCCTATAACCTCCTACACCCTCAAATACAGAGATACTATAAATTC (double strand) [cdhCD promoter]", "MEASURED TARGET": "FilR1 (Methanosaeta harundinacea 6Ac)", "binding": "no binding"}
{"BIOSEQUENCE": "ACCCGTTTGACCATATCCCTTTCGTCCATGTTGAGGTCCCCCTCATTTTAAGGGCCTAAATGGCGTAGATCCACGAAAGCCGGGAGCGATTCGCGATCCGACGGAACAACTCCCCAGTTATCGGCTTGATATCAGCCTCCACCCTCCAATTTCGCGAGCCCATCTCCTCGGCTTGAGTTTTTTCCTTGATTTCGCCGTATAAGTAGCTTCCGACGATCCCGATGCTGATAGAAGCTCTGAAGTTCTCATCGTACCG (double strand) [PfilR1 (filR1 promoter)]", "MEASURED TARGET": "FilR1 (Methanosaeta harundinacea 6Ac)", "binding": "binds"}
